Kindly state Herbicidal rate (%) Scirpus juncoides for each of the entries shown.
- System: Scirpus juncoides
- test_name: Test Example 2: herbicidal effect test by treatment during growing period in paddy rice cultivation (seven days after seeding)
- Format: in vivo
- run_conditions: 120 g/10a active ingredient, assessed 14 days after treatment, dry weight vs untreated area
Write the value in % as a bare number.

The measured Herbicidal rate (%) Scirpus juncoides associated with CCOC(=O)N(c1ccccc1Cc1c(C)n(CCSC)oc1=O)S(=O)(=O)C(F)(F)F reads 90

The measured Herbicidal rate (%) Scirpus juncoides associated with Cc1c(Cc2ccccc2N(S(=O)(=O)C(F)(F)F)S(=O)(=O)C(F)(F)F)c(=O)on1CC(F)(F)c1ccccc1 reads 80

The measured Herbicidal rate (%) Scirpus juncoides associated with CC(=O)N(c1ccccc1Cc1c(C)n(CC(C)(C)C)oc1=O)S(=O)(=O)C(F)(F)F reads 90

The measured Herbicidal rate (%) Scirpus juncoides associated with CCC(C)Cn1oc(=O)c(Cc2ccccc2N(C(=O)OCCOC)S(=O)(=O)C(F)(F)F)c1C (stereo not drawn) reads 90

The measured Herbicidal rate (%) Scirpus juncoides associated with CCCCCCCCn1oc(=O)c(Cc2ccccc2N(S(=O)(=O)C(F)(F)F)S(=O)(=O)C(F)(F)F)c1C reads 40

The measured Herbicidal rate (%) Scirpus juncoides associated with Cc1c(Cc2ccccc2N(C(=O)OCC(C)C)S(=O)(=O)C(F)(F)F)c(=O)on1C(C)C reads 90

The measured Herbicidal rate (%) Scirpus juncoides associated with CCCCC(c1ccccc1)n1oc(=O)c(Cc2ccccc2N(S(=O)(=O)C(F)(F)F)S(=O)(=O)C(F)(F)F)c1C (stereo not drawn) reads 70

The measured Herbicidal rate (%) Scirpus juncoides associated with Cc1c(Cc2ccc(Cl)cc2NS(=O)(=O)C(F)(F)F)c(=O)on1C(C)C reads 0

The measured Herbicidal rate (%) Scirpus juncoides associated with CSCCn1oc(=O)c(Cc2ccccc2NS(=O)(=O)C(F)(F)F)c1C reads 80

The measured Herbicidal rate (%) Scirpus juncoides associated with CCC(C)n1oc(=O)c(Cc2ccccc2N(C(=O)OCc2ccccc2)S(=O)(=O)C(F)(F)F)c1C (single isomer, unassigned) reads 90

The measured Herbicidal rate (%) Scirpus juncoides associated with CCC(C)Cn1oc(=O)c(Cc2ccccc2N(S(C)(=O)=O)S(=O)(=O)C(F)(F)F)c1C (stereo not drawn) reads 90

The measured Herbicidal rate (%) Scirpus juncoides associated with Cc1c(Cc2ccccc2NS(=O)(=O)C(F)(F)F)c(=O)on1CCOc1ccccc1 reads 90

The measured Herbicidal rate (%) Scirpus juncoides associated with CCC(C)Cn1oc(=O)c(Cc2ccccc2NS(=O)(=O)C(F)(F)F)c1C (stereo not drawn) reads 90

The measured Herbicidal rate (%) Scirpus juncoides associated with CCC(C)n1oc(=O)c(Cc2ccccc2N(C(=O)OCCOC)S(=O)(=O)C(F)(F)F)c1C (stereo not drawn) reads 90

The measured Herbicidal rate (%) Scirpus juncoides associated with CCC(CC)n1oc(=O)c(Cc2ccccc2N(C(=O)C2CC2)S(=O)(=O)C(F)(F)F)c1C reads 90

---

Kindly state herbicidal effect (herbicidal rate), Amaranthus viridis for each of the entries shown.
- System: Amaranthus viridis
- test_name: Test Example 4: herbicidal effect test by treatment of leave and stem in dry field farming (seven days after seeding)
- Type: in vivo
- run_conditions: 120 g/10a active ingredient; emulsion sprayed seven days after seeding; evaluated 14 days after treatment
Write the value in % as a bare number.

Reading of herbicidal effect (herbicidal rate), Amaranthus viridis for CCC(=O)N(c1ccccc1Cc1c(C)n(C(C)CC)oc1=O)S(=O)(=O)C(F)(F)F (centres unmarked) with Amaranthus viridis: 40

Reading of herbicidal effect (herbicidal rate), Amaranthus viridis for CCS(=O)(=O)N(c1ccccc1Cc1c(C)n(CCSC)oc1=O)S(=O)(=O)C(F)(F)F with Amaranthus viridis: 40

Reading of herbicidal effect (herbicidal rate), Amaranthus viridis for COC(=O)N(c1ccccc1Cc1c(C)n(Cc2ccc(F)cc2)oc1=O)S(=O)(=O)C(F)(F)F with Amaranthus viridis: 40

Reading of herbicidal effect (herbicidal rate), Amaranthus viridis for Cc1c(Cc2ccccc2N(C(=O)OCc2ccccc2)S(=O)(=O)C(F)(F)F)c(=O)on1C(C)c1ccccc1 (centres unmarked) with Amaranthus viridis: 40

Reading of herbicidal effect (herbicidal rate), Amaranthus viridis for CSCCn1oc(=O)c(Cc2ccccc2NS(=O)(=O)C(F)(F)F)c1C with Amaranthus viridis: 50

Reading of herbicidal effect (herbicidal rate), Amaranthus viridis for C=C(C)Cn1oc(=O)c(Cc2ccccc2NS(=O)(=O)C(F)(F)F)c1C with Amaranthus viridis: 80

Reading of herbicidal effect (herbicidal rate), Amaranthus viridis for Cc1c(Cc2ccccc2NS(=O)(=O)C(F)(F)F)c(=O)on1CC(C)(C)C with Amaranthus viridis: 40

Reading of herbicidal effect (herbicidal rate), Amaranthus viridis for Cc1c(Cc2ccccc2N(S(=O)(=O)C(F)(F)F)S(=O)(=O)C(F)(F)F)c(=O)on1C(C)C1CC1 (centres unmarked) with Amaranthus viridis: 40

---

Kindly state Herbicidal rate (%) Scirpus juncoides for each of the entries shown.
- Tested on: Scirpus juncoides
- test_name: Test Example 2: herbicidal effect test by treatment during growing period in paddy rice cultivation (seven days after seeding)
- Type: in vivo
- run_conditions: 120 g/10a active ingredient, assessed 14 days after treatment, dry weight vs untreated area
Write the value in % as a bare number.

Reading of Herbicidal rate (%) Scirpus juncoides for Cc1c(Cc2ccccc2N(C(=O)C2CCCCC2)S(=O)(=O)C(F)(F)F)c(=O)on1C(C)(C)C [Compound 1-431] with Scirpus juncoides: 90

Reading of Herbicidal rate (%) Scirpus juncoides for Cc1c(Cc2ccccc2N(S(=O)(=O)C(F)(F)F)S(=O)(=O)C(F)(F)F)c(=O)on1CCC(C)C [Compound 1-974] with Scirpus juncoides: 90

Reading of Herbicidal rate (%) Scirpus juncoides for Cc1c(Cc2ccccc2NS(=O)(=O)C(F)(F)F)c(=O)on1Cc1cccs1 [Compound 1-231] with Scirpus juncoides: 60

Reading of Herbicidal rate (%) Scirpus juncoides for CCCOC(=O)N(c1ccccc1Cc1c(C)n(C(C)(C)C)oc1=O)S(=O)(=O)C(F)(F)F [Compound 1-631] with Scirpus juncoides: 90

---

Kindly state Herbicidal rate (%) Scirpus juncoides for each of the entries shown.
- Test system: Scirpus juncoides
- test_name: Test Example 2: herbicidal effect test by treatment during growing period in paddy rice cultivation (seven days after seeding)
- Assay type: in vivo
- run_conditions: 120 g/10a active ingredient, assessed 14 days after treatment, dry weight vs untreated area

The measured Herbicidal rate (%) Scirpus juncoides associated with Cc1c(Cc2ccccc2N(C(=O)OCc2ccccc2)S(=O)(=O)C(F)(F)F)c(=O)on1C(C)c1ccccc1 (stereo not shown) reads 90%

The measured Herbicidal rate (%) Scirpus juncoides associated with Cc1c(Cc2ccccc2NS(=O)(=O)C(F)(F)F)c(=O)on1CC(F)(F)c1ccccc1 reads 90%

The measured Herbicidal rate (%) Scirpus juncoides associated with Cc1c(Cc2ccccc2NS(=O)(=O)C(F)(F)F)c(=O)on1Cc1ccc(F)c(F)c1 reads 80%

The measured Herbicidal rate (%) Scirpus juncoides associated with Cc1c(Cc2cc(F)ccc2N(S(=O)(=O)C(F)(F)F)S(=O)(=O)C(F)(F)F)c(=O)on1CC(C)C reads 90%

The measured Herbicidal rate (%) Scirpus juncoides associated with CCCCn1oc(=O)c(Cc2ccccc2N(S(=O)(=O)C(F)(F)F)S(=O)(=O)C(F)(F)F)c1C reads 90%

The measured Herbicidal rate (%) Scirpus juncoides associated with Cc1c(Cc2ccccc2NS(=O)(=O)C(F)(F)F)c(=O)on1Cc1ccc(Cl)cc1 reads 80%

The measured Herbicidal rate (%) Scirpus juncoides associated with CCC(c1ccccc1)n1oc(=O)c(Cc2ccccc2NS(=O)(=O)C(F)(F)F)c1C (stereo not shown) reads 90%

---

Kindly state Herbicidal rate (%) Monochoria vaginalis for each of the entries shown.
- System: broad leaf weeds (Lindernia pyxidaria and Monochoria vaginalis)
- test_name: Test Example 1: herbicidal effect test by treatment of rice paddy soil (immediately after seeding)
- Assay type: in vivo
- run_conditions: Monochoria vaginalis, 120 g/10a active ingredient, dry weight vs untreated area, 14 days after treatment
Write the value in % as a bare number.

The measured Herbicidal rate (%) Monochoria vaginalis associated with CCC(C)Cn1oc(=O)c(Cc2ccccc2N(C(=O)OC)S(=O)(=O)C(F)(F)F)c1C (stereo not shown) [Compound 1-583] reads 90

The measured Herbicidal rate (%) Monochoria vaginalis associated with Cc1c(Cc2cc(F)ccc2N(S(=O)(=O)C(F)(F)F)S(=O)(=O)C(F)(F)F)c(=O)on1Cc1ccccc1 [Compound 1-32] reads 90

The measured Herbicidal rate (%) Monochoria vaginalis associated with Cc1c(Cc2ccccc2N(S(=O)(=O)C(F)(F)F)S(=O)(=O)C(F)(F)F)c(=O)on1Cc1ccc(F)cc1 [Compound 1-1014] reads 100

The measured Herbicidal rate (%) Monochoria vaginalis associated with CCCC(C)n1oc(=O)c(Cc2ccccc2N(C(=O)C(C)C)S(=O)(=O)C(F)(F)F)c1C (stereo not shown) [Compound 1-334] reads 80

---

- System: Scirpus juncoides
- test_name: Test Example 2: herbicidal effect test by treatment during growing period in paddy rice cultivation (seven days after seeding)
- Type: in vivo
- run_conditions: 120 g/10a active ingredient, assessed 14 days after treatment, dry weight vs untreated area
property: Herbicidal rate (%) Scirpus juncoides
Write the value in % as a bare number.

The measured Herbicidal rate (%) Scirpus juncoides associated with CCOC(=O)N(c1ccccc1Cc1c(C)n(CC(C)C)oc1=O)S(=O)(=O)C(F)(F)F [Compound 1-608] reads 80

The measured Herbicidal rate (%) Scirpus juncoides associated with CCC(C)Cn1oc(=O)c(Cc2ccccc2N(C(=O)OCc2ccccc2)S(=O)(=O)C(F)(F)F)c1C (single isomer, unassigned) [1-789 (TLC bottom)] reads 90

The measured Herbicidal rate (%) Scirpus juncoides associated with Cc1c(Cc2ccccc2NS(=O)(=O)C(F)(F)F)c(=O)on1Cc1ccc(C(C)(C)C)cc1 [Compound 1-192] reads 60

The measured Herbicidal rate (%) Scirpus juncoides associated with Cc1c(Cc2ccccc2NS(=O)(=O)C(F)(F)F)c(=O)on1C(C)c1ccc(OC(F)(F)F)cc1 (stereo not drawn) [Compound 1-209] reads 90

The measured Herbicidal rate (%) Scirpus juncoides associated with Cc1c(Cc2ccccc2N(S(=O)(=O)C(F)(F)F)S(=O)(=O)C(F)(F)F)c(=O)on1CCCl [Compound 1-983] reads 80

The measured Herbicidal rate (%) Scirpus juncoides associated with Cc1c(Cc2ccccc2N(S(=O)(=O)C(F)(F)F)S(=O)(=O)C(F)(F)F)c(=O)on1C(C)c1cccc(Cl)c1 (stereo not drawn) [Compound 1-1033] reads 80

The measured Herbicidal rate (%) Scirpus juncoides associated with Cc1c(Cc2ccccc2N(S(=O)(=O)C(F)(F)F)S(=O)(=O)C(F)(F)F)c(=O)on1Cc1ccc(C(C)(C)C)cc1 [Compound 1-1019] reads 0

The measured Herbicidal rate (%) Scirpus juncoides associated with Cc1c(Cc2ccccc2N(S(=O)(=O)C(F)(F)F)S(=O)(=O)C(F)(F)F)c(=O)on1CC(C)(C)C [Compound 1-968] reads 90

The measured Herbicidal rate (%) Scirpus juncoides associated with Cc1c(Cc2ccccc2NS(=O)(=O)C(F)(F)F)c(=O)on1CC(C)c1ccccc1 (stereo not drawn) [Compound 1-219] reads 90

The measured Herbicidal rate (%) Scirpus juncoides associated with COCC(C)n1oc(=O)c(Cc2ccccc2N(C(=O)C2CCCCC2)S(=O)(=O)C(F)(F)F)c1C (stereo not drawn) [Compound 1-434] reads 90

The measured Herbicidal rate (%) Scirpus juncoides associated with Cc1c(Cc2ccccc2NS(=O)(=O)C(F)(F)F)c(=O)on1C1CCCCC1 [Compound 1-142] reads 90

The measured Herbicidal rate (%) Scirpus juncoides associated with CC(C)Cn1oc(=O)c(Cc2ccccc2NS(=O)(=O)C(F)(F)F)c1C(F)(F)F [Compound 1-81] reads 90

The measured Herbicidal rate (%) Scirpus juncoides associated with CCOC(=O)N(c1ccccc1Cc1c(C)n(C(C)c2ccccc2)oc1=O)S(=O)(=O)C(F)(F)F (stereo not drawn) [Compound 1-626] reads 90

The measured Herbicidal rate (%) Scirpus juncoides associated with CCC(C)n1oc(=O)c(Cc2ccccc2N(C(=O)C2CCCCC2)S(=O)(=O)C(F)(F)F)c1C (stereo not drawn) [Compound 1-432] reads 90

The measured Herbicidal rate (%) Scirpus juncoides associated with C=CCn1oc(=O)c(Cc2ccccc2N(S(=O)(=O)C(F)(F)F)S(=O)(=O)C(F)(F)F)c1C [Compound 1-985] reads 60
